Exercise: state measured pEC50 for each of the compounds provided.
Test system: Plasmodium falciparum
method: NOVARTIS: Inhibition of Plasmodium falciparum 3D7 (drug-susceptible) proliferation in erythrocyte-based infection assay
Assay type: functional, organism-based
runConditions: Plasmodium falciparum, 3D7
Remember the convention: pEC50 equals -log10 of concentration in molar.

Problem: Supply reported pEC50 belonging to this compound: O=C(N1CCCCC1)n1nnc2ccccc21
Solution: 5.88

Problem: Given COc1ccc(-c2nc(-c3ccc(-c4[nH]c(-c5ccc(OC)cc5)nc4-c4ccccc4)cc3)c(-c3ccccc3)[nH]2)cc1 , respond with its pEC50.
Solution: 5.89

Problem: Let me know recorded pEC50 for COc1ccc(/C=C/c2ccc3ccccc3[n+]2C)cc1OC , thanks.
Solution: 6.06

Problem: Note down pEC50 recorded for COc1ccc(CN2CCOc3ccc(C(C)(O)CN(C)C)cc3C2)cc1C (stereo unspecified)
Solution: 6.08

Problem: Supply recorded pEC50 for CCN(CC)CCCC(C)Nc1cc(/C=C/c2ccc([N+](=O)[O-])cc2)nc2cc(OC)ccc12 (stereo unspecified) here.
Solution: 6.32

Problem: Write down pEC50 measured for item C=CCc1c(C)nc2ccc(Br)cc2c1O
Solution: 5.79

Problem: Return value of pEC50 for input Oc1ccc(-c2ccc3c(c2)OCO3)cc1CNCC1(N2CCCCC2)CCCCC1 , no commentary.
Solution: 6.54

Problem: Supply measured pEC50 of CN(CCCNc1ccnc2cc(Cl)ccc12)C(=O)/C=C/c1ccccc1 in your reply.
Solution: 6.43

Problem: Read off the recorded pEC50 for CCC(c1nc2ccccc2c(=O)n1-c1ccccc1OC)N(CCc1ccccc1)C(=O)Nc1ccccc1OC (stereo unspecified)
Solution: 5.99

Problem: Give pEC50 for the following compound: Nc1c(C(=O)Nc2ccc(F)cc2)sc2nc3c(c(-c4cccs4)c12)CCCC3
Solution: 5.95

Problem: Report measured pEC50; entry is COc1ccc([N+](=O)[O-])cc1-c1ccc(/C=C(\C#N)c2nn(CCO)c(N)c2C#N)o1
Solution: 6.06

Problem: Tell me pEC50 reported for COc1ccc(/C=C\c2cc[n+](C)cc2)cc1OC
Solution: 5.96

Problem: Fill in reported pEC50 for this entry: Cc1nc(NN=Cc2c(O)ccc3ccccc23)cc(N2CCCCC2)n1
Solution: 6.22

Problem: Specify reported pEC50 for the compound shown: CCCN1CCC(N2C[C@@H](NCc3cc(C)ccc3C)C[C@H]2C(=O)NCCc2ccc3c(c2)OCO3)CC1
Solution: 6.32

Problem: Please list pEC50 recorded for the compound CC(=O)c1cccc(S(=O)(=O)NCCCNc2nc3cc(C)cc(C)c3cc2C#N)c1
Solution: 5.94
